Test system: NCI-H522 lung
Test: NCI tumour cell line growth inhibition, 48 h
Binning rule for recorded TGI: lower band: < 4 µM; central band: ≥ 4 µM and < 30 µM; upper band: ≥ 30 µM

Study these solved cases before continuing.
CCC1=CC(OCc2ccccc2)C(CCN(Cc2ccccc2)C(=O)OCc2ccccc2)C1 (centres undefined)    central band
C/C(=C\[Si](C)(C)c1ccco1)C(C)(O)[C@H](C)O (some centres undefined)    upper band
CCCCCN1C(=O)C(Cc2ccccc2)N=C(c2ccc(O)cc2)c2cc(Cl)ccc21 (centres undefined)    central band
CC1(C)N=C(N)N=C(N)N1c1ccc(OCC(=O)Nc2ccc(S(=O)(=O)F)cc2Cl)c(Cl)c1    upper band
Cn1c2c(c3ccccc31)CCN1C[C@@H]3CCCC[C@H]3C[C@@H]21    central band
C=C1N(C)c2ccc(S(=O)(=O)c3ccc4c(c3)C(C)(C)C(=C)N4C)cc2C1(C)C    upper band
CC(=O)OC1C(O)C(C)OC(OC2C(OC(=O)C3CCC4C(C3)OC3(CC(OC(=O)/C=C/c5ccccc5)C(C)CO3)C43CO3)OC(C)C(O)C2OC(C)=O)C1O (centres undefined)    lower band
COc1ccc(-c2cc(=O)c3c(OC)c4ccoc4c(/C=C/C=O)c3o2)cc1    upper band

Task: Which class holds `CC(C)N(CC(=O)O)CC(=O)O` ?
Output: upper band

Task: Which class holds `CC[O-].CC[O-].O=C1C=C([O-])C(=O)c2ccccc21.O=C1C=C([O-])C(=O)c2ccccc21.[Ti+4]` ?
Output: upper band

Task: Which class holds `Cc1nc2ccc(-n3ncc(C(=O)c4cc5ccccc5[nH]4)c3N)cc2[nH]1` ?
Output: upper band

Task: Which class holds C/C=C\C1OC1(C)c1cc(=O)c2c(C)cc3c(c2o1)C(=O)c1c(O)c(C2CC(C)(N(C)C)C(OC(C)=O)C(C)O2)cc(C2CC(N(C)C)C(O)C(C)O2)c1C3=O (centres undefined) ?
Output: lower band

Task: Which class holds `Cc1ccc(NC(=S)NNC(=S)Nc2ccc(C)cc2)cc1` ?
Output: central band

Task: Which class holds `O=C1c2ccccc2C(=O)c2c1oc1cc(O)c(Cl)cc21` ?
Output: central band

Task: Which class holds `COc1cc2ccnc(C#N)c2cc1OCc1ccccc1` ?
Output: upper band

Task: Which class holds Cc1ccc(C(=O)NC2C(=O)NC(C(C)C)C(=O)N3CCCC3C(=O)N(C)CC(=O)N(C)C(C(C)C)C(=O)OC2C)c2c1Oc1c(c(C(=O)NC3C(=O)NC(C(C)C)C(=O)N4CCCC4C(=O)N(C)CC(=O)N(C)C(C(C)C)C(=O)OC3C)c3nc(-c4ccccc4)c(=O)oc3c1C)N2 (centres undefined) ?
Output: lower band

Task: Which class holds `O=C(O)c1ccc(CSc2nc3ccccc3[nH]2)cc1` ?
Output: upper band

Task: Which class holds `Cc1ccc(S(=O)(=O)c2ccc(C)cc2[N+](=O)[O-])c([N+](=O)[O-])c1` ?
Output: upper band

---

// reported TGI per item
System: BT-549 breast
Assay: NCI tumour cell line growth inhibition, 48 h

O=[N+]([O-])C(C(Cl)=C(Cl)Cl)=C(N1CCCCC1)N1CCCCC1    > 100 µM

Task: What TGI value was documented for this compound, `CC(C)C[C@H](NC(=O)[C@@H](Cc1ccccc1)n1ccc(Nc2ccccc2)cc1=O)B(O)O` ?
Output: 2.35 µM

Task: What TGI value was documented for this compound, `COc1cccc2nc(Nc3cccc(NC(=O)c4ccc(N5CCN(C)CC5)c(C(F)(F)F)c4)c3)ccc12` ?
Output: 9.39 µM

Task: What TGI value was documented for this compound, `COc1ccc(OC(=O)N2C/C(=C\c3ccccc3)C(=O)/C(=C/c3ccccc3)C2)cc1` ?
Output: 4.67 µM

Task: What TGI value was documented for this compound, `C=C1N(C)c2ccc(S(=O)(=O)c3ccc4c(c3)C(C)(C)C(=C)N4C)cc2C1(C)C` ?
Output: 87.9 µM

Task: What TGI value was documented for this compound, O=C1CC(n2ccnc2)c2c(Cl)sc(Cl)c21 (stereo not given) ?
Output: 32.8 µM

Task: What TGI value was documented for this compound, C1=NN2C(c3ccccc3)=NOC2C2C(c3ccccc3)=NOC12 (stereo not given) ?
Output: > 100 µM

Task: What TGI value was documented for this compound, `CCOC(=O)c1c(C)n([O-])c2cc(F)c(F)cc2[n+]1=O` ?
Output: 3.64 µM

Task: What TGI value was documented for this compound, CSC12c3cc(C)n(-c4ccc(I)cc4)c3CC(C)(C)CN1C(=O)C2Oc1ccccc1 (stereo not given) ?
Output: > 100 µM

Task: What TGI value was documented for this compound, `COc1cccc(CCn2c(N)c(-c3cc(Cl)cc(Cl)c3)c3ccc([N+](=O)[O-])cc3c2=O)c1` ?
Output: > 59.5 µM

Task: What TGI value was documented for this compound, CCCCCCCCCCCCCCCCCCN(C)CC(COC)OP(=O)([O-])OCC[N+](C)(C)C (stereo not given) ?
Output: 6.75 µM

Task: What TGI value was documented for this compound, `O=S(=O)(O)c1c(Cl)c(Cl)c(O)c2ncccc12` ?
Output: 67.3 µM

Task: What TGI value was documented for this compound, `CCOC(=O)c1sc2nc(SC)nc3c2c1NC(=O)CN3c1ccc(F)cc1` ?
Output: 43.3 µM

Task: What TGI value was documented for this compound, `Nc1ncnc2c1ccn2CC#CCO` ?
Output: > 100 µM

Task: What TGI value was documented for this compound, `Cc1c2c(n3c(nc4ccccc43)c1C#N)N(c1ccc(F)cc1)CC2` ?
Output: > 100 µM
